For each entry below, report its Fold change to WT CD80 value.
- target entity: CTLA4 (human)
- Sequence (chain, as listed by the source): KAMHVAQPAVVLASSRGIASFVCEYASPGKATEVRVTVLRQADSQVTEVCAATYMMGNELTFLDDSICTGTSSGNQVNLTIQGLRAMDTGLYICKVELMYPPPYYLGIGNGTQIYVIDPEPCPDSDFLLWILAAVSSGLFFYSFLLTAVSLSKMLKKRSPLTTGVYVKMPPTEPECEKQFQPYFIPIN
- procedure text: flow cytometry, CHO cells stably expressing CTLA4
# number only, unit fold dropped from output

-- ask Entry under review: CD80 variant H18Y/Y31H/E35D/M47V/A71G/L85Q IgV-Fc (Fc fusion) VIHVTKEVKEVATLSCGYNVSVEELAQTRIHWQKDKKMVLTMMSGDVNIWPEYKNRTIFDITNNLSIVILGLRPSDEGTYECVVQKYEKDAFKREHLAEVT . Reported Fold change to WT CD80?
-- reply 0.02

-- ask Entry under review: CD80 variant H18L/V22A/E35D/M47L/N48T/L85Q IgV-Fc (Fc fusion) VIHVTKEVKEVATLSCGLNVSAEELAQTRIYWQKDKKMVLTMMSGDLTIWPEYKNRTIFDITNNLSIVILALRPSDEGTYECVVQKYEKDAFKREHLAEVT . Reported Fold change to WT CD80?
-- reply 2.09
